All values here come from ChEMBL document CHEMBL3864180.

# measured.on: Complement factor D (Homo sapiens, UniProt P00746)
# Sequence (P00746 whole entry, the tested form may be a part): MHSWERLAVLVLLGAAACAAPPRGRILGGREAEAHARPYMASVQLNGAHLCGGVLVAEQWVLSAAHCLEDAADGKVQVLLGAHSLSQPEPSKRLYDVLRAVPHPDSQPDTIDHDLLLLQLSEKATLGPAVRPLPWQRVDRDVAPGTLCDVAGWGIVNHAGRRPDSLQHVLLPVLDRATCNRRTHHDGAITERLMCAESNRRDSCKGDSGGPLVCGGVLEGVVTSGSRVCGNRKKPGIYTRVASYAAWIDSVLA
# method.summary: Binding affinity to recombinant human C-terminal 6His-tagged/biotinylated complement factor D (26 to 253 residues) expressed in Sf9 insect cells assessed as association constant measured after 300 to 900 secs by biolayer interferometry method
K values, listed per item
Param answer (str): number followed by unit.

smiles.code	K
NC(=O)c1nn(CC(=O)N2CCS[C@H]2C(=O)Nc2cccc(Br)n2)c2ncccc12	173000 M⁻¹ s⁻¹

// field: K; key: O=C(Nc1cccc(Br)n1)[C@@H]1C[C@H]2C[C@H]2N1C(=O)Cn1ncc2ccccc21 ; value = 15800 M⁻¹ s⁻¹

The value of K measured for the molecule O=C(Nc1cccc(Br)n1)[C@@H]1SCCN1C(=O)Cn1ncc2ccccc21 turned out to be 132000 M⁻¹ s⁻¹

Just so you know, measured K for NC(=O)c1nn(CC(=O)N2[C@@H]3C[C@@H]3C[C@H]2C(=O)Nc2cccc(Br)n2)c2ncccc12 came out at 212000 M⁻¹ s⁻¹
